Experiment: Anticancer human tumor 997537-175-T-J1-PDC patient-derived colon adenocarcinoma cell line growth inhibition [POLQ];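 note: luminescence signal used as a surrogate for viable cells; spheroids exposed to drugs for seven days before readout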
Cond: 997537-175-T-J1-PDC complex spheroid viability, combination with POLQ inhibitors; second compound 1 µM; first compound 10 µM; stronger effect = lower value
Quantity Name: viability, T/C (%)
State the answer as a number, implicitly in %.

- Compound: "CC1COCCN1c1cc(-c2ccnn2C)c2ccnc(-c3ccn[nH]3)c2n1 (stereo unspecified) + Nc1ccc(C#CCN(C(=O)Cc2ncc(C(F)(F)F)cc2C(F)(F)F)c2ccc(F)cc2)nn1"
  Value Units: "%"
  viability, T/C: 53.4
- Compound: "C=CC(=O)N1CCN(c2nc(=O)n(-c3c(C)ccnc3C(C)C)c3nc(-c4c(O)cccc4F)c(F)cc23)C(C)C1 (stereo unspecified) + Cc1cccc(N(C)C(=O)C2C(O)CCN2c2nc(C)cc(C(F)(F)F)c2C#N)c1"
  Value Units: "%"
  viability, T/C: 82.2
- Compound: "O=C(Nc1ccc(O)c(NS(=O)(=O)c2ccc(F)cc2)c1)c1ccc(-c2ccccc2)cc1 + Nc1ccc(C#CCN(C(=O)Cc2ncc(C(F)(F)F)cc2C(F)(F)F)c2ccc(F)cc2)nn1"
  Value Units: "%"
  viability, T/C: 89.8
- Compound: "CC(C)n1c(=O)n(C)c2cnc3cc(F)c(-c4ccc(OCCCN5CCCCC5)nc4)cc3c21 + Nc1ccc(C#CCN(C(=O)Cc2ncc(C(F)(F)F)cc2C(F)(F)F)c2ccc(F)cc2)nn1"
  Value Units: "%"
  viability, T/C: 107
- Compound: "CC1COCCN1c1cc(C2(O)CC3CCC(C2)O3)c2cnn(-c3ccn[nH]3)c2n1 (stereo unspecified) + Cc1cccc(N(C)C(=O)C2C(O)CCN2c2nc(C)cc(C(F)(F)F)c2C#N)c1"
  Value Units: "%"
  viability, T/C: 64.7
- Compound: "Nc1ccn(C2OC(CO)C(O)C2(F)F)c(=O)n1 (stereo unspecified) + COC1C(OC(N)=O)C(O)C(Oc2ccc3c(O)c(NC(=O)c4ccc(O)c(CC=C(C)C)c4)c(=O)oc3c2C)OC1(C)C"
  Value Units: "%"
  viability, T/C: 70.6
- Compound: "COc1cccc2c1C(=O)c1c(O)c3c(c(O)c1C2=O)CC(O)(C(=O)CO)CC3OC1CC(N)C(O)C(C)O1 (stereo unspecified) + COC1C(OC(N)=O)C(O)C(Oc2ccc3c(O)c(NC(=O)c4ccc(O)c(CC=C(C)C)c4)c(=O)oc3c2C)OC1(C)C"
  Value Units: "%"
  viability, T/C: 9.76
- Compound: "C=CC(=O)N1CCN(c2nc(=O)n(-c3c(C)ccnc3C(C)C)c3nc(-c4c(O)cccc4F)c(F)cc23)C(C)C1 (stereo unspecified) + COC1C(OC(N)=O)C(O)C(Oc2ccc3c(O)c(NC(=O)c4ccc(O)c(CC=C(C)C)c4)c(=O)oc3c2C)OC1(C)C"
  Value Units: "%"
  viability, T/C: 105
- Compound: "COc1ccc([C@@H](O)c2cc(-c3ncnc4cc(N5CCOCC5)ccc34)c(F)cc2Cl)nn1 + Nc1ccc(C#CCN(C(=O)Cc2ncc(C(F)(F)F)cc2C(F)(F)F)c2ccc(F)cc2)nn1"
  Value Units: "%"
  viability, T/C: 94.2
- Compound: "CCc1cc2c(N3CCc4c(cc(Cn5ccnc5)cc4-c4cn(C)nc4C(F)(F)F)C3=O)ccnc2c(OC)n1 + Cc1cccc(N(C)C(=O)C2C(O)CCN2c2nc(C)cc(C(F)(F)F)c2C#N)c1"
  Value Units: "%"
  viability, T/C: 66.5

Read the next record carefully.
Give the reported value of viability, T/C for this record: CNCc1ccc(-c2[nH]c3cc(F)cc4c3c2CCNC4=O)cc1 + Cc1cccc(N(C)C(=O)C2C(O)CCN2c2nc(C)cc(C(F)(F)F)c2C#N)c1
90.2
